Values were extracted from the supplement of paper PMC10567573.

B1: NECAB1 (parent)
chain: NLDTEELCEYFSQHLGEYENVLAA

Variants of: B1
Assay: protein stability index of a GFP-peptide fusion (GPS, HEK-293T) (PSI 1-6); higher = more stable;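 further: lentivirally expressed fusions sorted by FACS into six bins by GFP to DsRed ratio, PSI derived from sequencing read proportions per bin multiplied by bin number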
Settings: c terminus: a fixed tail appended
Entries are grouped by protein stability index into these classes: zone 1: < 2; zone 2: ≥ 2 and < 4; zone 3: ≥ 4

Consider NLDTEELCEYFSQPLGEYENVLAA . To which protein stability index class does it belong?
zone 3

NLDTEELCEYFSQHLGFYENVLAA ?
zone 2

NLDTEELCEYFSQHLCEYENVLAA ?
zone 1

NLDTEELCEYFSQHLGEYENSLAA ?
zone 2

NLDTEELCEYFSQHLGEYENDLAA ?
zone 3

NLDTEELCEYFSQHLGEYENVGAA ?
zone 3

NLDTEELCEYFSIHLGEYENVLAA ?
zone 2

NLDTEELCEYFSQHWGEYENVLAA ?
zone 2

NLDTEELCEYFSQHLGEYENLLAA ?
zone 2

NLDTEELCEYFSQHLGLYENVLAA ?
zone 2

NLDCEELCEYFSQHLGEYENVLAA ?
zone 2

PLDTEELCEYFSQHLGEYENVLAA ?
zone 2

RLDTEELCEYFSQHLGEYENVLAA ?
zone 2

DLDTEELCEYFSQHLGEYENVLAA ?
zone 1

NLDTEELCEYFSQSLGEYENVLAA ?
zone 2

NLDTEELCEFFSQHLGEYENVLAA ?
zone 2

NLDTEELCEYFSQHLGEYENVIAA ?
zone 2

NLDTEELCEYFSQILGEYENVLAA ?
zone 1

NLDTEELCLYFSQHLGEYENVLAA ?
zone 1

NGDTEELCEYFSQHLGEYENVLAA ?
zone 2

NNDTEELCEYFSQHLGEYENVLAA ?
zone 2

NLDTEELCEYFSQHLGEYENVLAL ?
zone 2

NLDTEELSEYFSQHLGEYENVLAA ?
zone 2

NLDTEELCYYFSQHLGEYENVLAA ?
zone 1

NLDTEILCEYFSQHLGEYENVLAA ?
zone 2

NLDTEELCEYFSQHLGETENVLAA ?
zone 3

NLDTEELCEYFSQHLGEYENVHAA ?
zone 3

NLDTEELCEYFSQELGEYENVLAA ?
zone 3

NLDTEELCEYFSQHLGEYENVLQA ?
zone 2

NLDTEELCEYFSQCLGEYENVLAA ?
zone 2

NLRTEELCEYFSQHLGEYENVLAA ?
zone 1

NLDTEKLCEYFSQHLGEYENVLAA ?
zone 2

NLDTEELCCYFSQHLGEYENVLAA ?
zone 2

NLDTEELCEYRSQHLGEYENVLAA ?
zone 3

NLDTEELCEYFSQHLGEYENILAA ?
zone 1

NLDTEELCEYFSQHLGEEENVLAA ?
zone 3

NLDTEELCTYFSQHLGEYENVLAA ?
zone 2

NLDTEELCEYFSQHLGEYENVLAQ ?
zone 2

NLDTEELCEYFSQHLGEFENVLAA ?
zone 2

NLDTEELCEYFSQHLGEYENVLAS ?
zone 2

NLDTEELCEYFSQHLGEYVNVLAA ?
zone 1

NLDFEELCEYFSQHLGEYENVLAA ?
zone 2

NLDTEELCEYASQHLGEYENVLAA ?
zone 3

NLDTEEICEYFSQHLGEYENVLAA ?
zone 2

NLDTEELCEGFSQHLGEYENVLAA ?
zone 3

NLETEELCEYFSQHLGEYENVLAA ?
zone 2

NLDTEELCEYFSAHLGEYENVLAA ?
zone 2

NLDTEELCEYFSQHLGEYENVLAI ?
zone 2

NLDTEELEEYFSQHLGEYENVLAA ?
zone 3

NLDTEVLCEYFSQHLGEYENVLAA ?
zone 2

NLDTEQLCEYFSQHLGEYENVLAA ?
zone 1

NLDTEELGEYFSQHLGEYENVLAA ?
zone 3

NLDTEELCEYFSKHLGEYENVLAA ?
zone 2

NLDTEELCEYPSQHLGEYENVLAA ?
zone 3

NLDTEELCEAFSQHLGEYENVLAA ?
zone 3

NLDTEMLCEYFSQHLGEYENVLAA ?
zone 1

NLDTEELCEYFSQHLGEYYNVLAA ?
zone 1

NLDTEEFCEYFSQHLGEYENVLAA ?
zone 2

HLDTEELCEYFSQHLGEYENVLAA ?
zone 2

NLDTEELCEKFSQHLGEYENVLAA ?
zone 3

NLDTEELCEYFSQHLGEYEGVLAA ?
zone 2
